# apparent Kd (screen) values compiled below
testedOn: T1, TNFR1 (Homo sapiens, UniProt P19438)
T1 chain: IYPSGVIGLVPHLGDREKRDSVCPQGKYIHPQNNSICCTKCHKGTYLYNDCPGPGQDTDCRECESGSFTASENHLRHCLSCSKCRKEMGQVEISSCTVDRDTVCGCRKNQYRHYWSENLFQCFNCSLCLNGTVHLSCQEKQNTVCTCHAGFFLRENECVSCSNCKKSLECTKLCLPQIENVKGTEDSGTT
protocolNotes: yeast display SC50
readoutKind: apparent Kd (screen) (nM)

binder	recordedMeasurement
E81S (designed binder) MTLQELLREEALRRAEAEAFRYALELLAEKFPEQKEYLLDLAEEIESQIRSLSGVDVEDVRKFLDKEWAWVKELLAEHPASLAEVEAARAARLAELRAEVEAKVAA	0.49
D40Q (designed binder) MTLQELLREEALRRAEAEAFRYALELLAEKFPEQKEYLLQLAEEIESQIRSLSGVDVEDVRKFLDKEWAWVKELLAEHPAELAEVEAARAARLAELRAEVEAKVAA	0.446
E10K (designed binder) MTLQELLREKALRRAEAEAFRYALELLAEKFPEQKEYLLDLAEEIESQIRSLSGVDVEDVRKFLDKEWAWVKELLAEHPAELAEVEAARAARLAELRAEVEAKVAA	8.56
I49G (designed binder) MTLQELLREEALRRAEAEAFRYALELLAEKFPEQKEYLLDLAEEIESQGRSLSGVDVEDVRKFLDKEWAWVKELLAEHPAELAEVEAARAARLAELRAEVEAKVAA	1.05
A69H (designed binder) MTLQELLREEALRRAEAEAFRYALELLAEKFPEQKEYLLDLAEEIESQIRSLSGVDVEDVRKFLDKEWHWVKELLAEHPAELAEVEAARAARLAELRAEVEAKVAA	0.869
L41W (designed binder) MTLQELLREEALRRAEAEAFRYALELLAEKFPEQKEYLLDWAEEIESQIRSLSGVDVEDVRKFLDKEWAWVKELLAEHPAELAEVEAARAARLAELRAEVEAKVAA	2.25
L27F (designed binder) MTLQELLREEALRRAEAEAFRYALELFAEKFPEQKEYLLDLAEEIESQIRSLSGVDVEDVRKFLDKEWAWVKELLAEHPAELAEVEAARAARLAELRAEVEAKVAA	0.446
K66F (designed binder) MTLQELLREEALRRAEAEAFRYALELLAEKFPEQKEYLLDLAEEIESQIRSLSGVDVEDVRKFLDFEWAWVKELLAEHPAELAEVEAARAARLAELRAEVEAKVAA	0.653
E101L (designed binder) MTLQELLREEALRRAEAEAFRYALELLAEKFPEQKEYLLDLAEEIESQIRSLSGVDVEDVRKFLDKEWAWVKELLAEHPAELAEVEAARAARLAELRAEVLAKVAA	0.593
K103N (designed binder) MTLQELLREEALRRAEAEAFRYALELLAEKFPEQKEYLLDLAEEIESQIRSLSGVDVEDVRKFLDKEWAWVKELLAEHPAELAEVEAARAARLAELRAEVEANVAA	0.49
L12N (designed binder) MTLQELLREEANRRAEAEAFRYALELLAEKFPEQKEYLLDLAEEIESQIRSLSGVDVEDVRKFLDKEWAWVKELLAEHPAELAEVEAARAARLAELRAEVEAKVAA	0.446
P79I (designed binder) MTLQELLREEALRRAEAEAFRYALELLAEKFPEQKEYLLDLAEEIESQIRSLSGVDVEDVRKFLDKEWAWVKELLAEHIAELAEVEAARAARLAELRAEVEAKVAA	0.653
E16P (designed binder) MTLQELLREEALRRAPAEAFRYALELLAEKFPEQKEYLLDLAEEIESQIRSLSGVDVEDVRKFLDKEWAWVKELLAEHPAELAEVEAARAARLAELRAEVEAKVAA	9.41
K62A (designed binder) MTLQELLREEALRRAEAEAFRYALELLAEKFPEQKEYLLDLAEEIESQIRSLSGVDVEDVRAFLDKEWAWVKELLAEHPAELAEVEAARAARLAELRAEVEAKVAA	0.593
L52Q (designed binder) MTLQELLREEALRRAEAEAFRYALELLAEKFPEQKEYLLDLAEEIESQIRSQSGVDVEDVRKFLDKEWAWVKELLAEHPAELAEVEAARAARLAELRAEVEAKVAA	0.539
A69T (designed binder) MTLQELLREEALRRAEAEAFRYALELLAEKFPEQKEYLLDLAEEIESQIRSLSGVDVEDVRKFLDKEWTWVKELLAEHPAELAEVEAARAARLAELRAEVEAKVAA	0.718

Recorded values, source paper PMC12416549.
